Read-out: CYP2C9 (gene 1559)
Test: LTEA_HepaRG_CYP2C9: Life Technologies and Expression Analysis (LTEA) Assay for CYP2C9 using HepaRG (AID 2283484)
Details: mRNA level, 48 h; actives raise or lower the signal
Active and inactive are the calls of the source. How the source made its calls: active means hit-call score of the fitted dose curve at least 0.9, where 1 is the maximum; inactive means score below 0.9.
Give your call using only these classes: 1 for active, -1 for inactive

Data request: Field: outcome | Entry: `c1ccc(N=Nc2ccccc2)cc1`
Data returned: -1

Data request: Field: outcome | Entry: `Nc1ccc(Cl)cc1N`
Data returned: 1

Data request: Field: outcome | Entry: `Clc1ccc(C(c2ccc(Cl)cc2)C(Cl)(Cl)Cl)cc1`
Data returned: 1

Data request: Field: outcome | Entry: `Nc1ccc(Cc2ccc(N)cc2)cc1`
Data returned: 1

Data request: Field: outcome | Entry: `CCC12COCN1COC2`
Data returned: -1

Data request: Field: outcome | Entry: `CCCSC(=O)N(CCC)CCC`
Data returned: -1

---

Read-out: Fatty Acid-Binding Protein 1 (FABP1), FABP1 (gene 2168)
Test: LTEA_HepaRG_FABP1: Life Technologies and Expression Analysis (LTEA) Assay for Fatty Acid-Binding Protein 1 (FABP1) using HepaRG (AID 2283494)
Settings: mRNA level, 48 h; actives raise or lower the signal
The source made the active and inactive calls. How the source made its calls: active means hit-call score of the fitted dose curve at least 0.9, where 1 is the maximum; inactive means score below 0.9.
Give your call using only these classes: active, inactive

| Substance Smiles | Label |
| --- | --- |
| CC(C)(O)c1cnn2c(-c3ccc(F)c(-c4c(F)cccc4C#N)c3)cnc2n1 | active |
| O=C(N[C@H](c1ccccc1)[C@@H]1CN2CCC1CC2)c1c(Cl)ccc(C(F)(F)F)c1Cl | active |
| CCCCCCCCn1sccc1=O | inactive |
| O=[N+]([O-])c1ccc(Oc2ccc(Cl)cc2Cl)cc1 | inactive |
| C[C@]12C=CC3=C4CCC(=O)C=C4CC[C@H]3[C@@H]1CC[C@@H]2O | active |

We now examine a further compound.
Data request: Field: outcome | Entry: `Nc1ccc([N+](=O)[O-])cc1`
Data returned: inactive

---

Target: sheep Cyclooxygenase-1 (Cox1), PTGS1 (gene 443551) (UniProt P05979)
Sequence (P05979 whole entry, looked up): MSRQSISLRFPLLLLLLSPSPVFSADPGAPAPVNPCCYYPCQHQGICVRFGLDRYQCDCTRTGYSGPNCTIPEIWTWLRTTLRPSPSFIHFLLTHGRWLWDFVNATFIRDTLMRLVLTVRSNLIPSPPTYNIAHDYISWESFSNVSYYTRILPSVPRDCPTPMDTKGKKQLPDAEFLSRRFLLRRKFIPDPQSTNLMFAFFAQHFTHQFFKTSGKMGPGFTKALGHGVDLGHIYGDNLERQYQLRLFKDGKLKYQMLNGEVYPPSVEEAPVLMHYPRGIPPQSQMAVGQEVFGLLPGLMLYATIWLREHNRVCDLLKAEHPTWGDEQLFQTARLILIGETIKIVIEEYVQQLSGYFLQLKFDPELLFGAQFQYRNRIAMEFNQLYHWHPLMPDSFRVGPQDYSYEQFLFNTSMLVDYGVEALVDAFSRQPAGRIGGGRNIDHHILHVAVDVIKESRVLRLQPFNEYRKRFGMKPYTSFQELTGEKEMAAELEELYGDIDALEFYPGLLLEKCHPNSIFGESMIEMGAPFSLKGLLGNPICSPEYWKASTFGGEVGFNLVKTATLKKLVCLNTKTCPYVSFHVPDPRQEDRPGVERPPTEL
Test: NVS_ENZ_oCOX1: NovaScreen (NVS) Enzymatic Assay for sheep Cyclooxygenase-1 (Cox1) (AID 2283239);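 further: actives reduce cyclooxygenase activity so potencies are for inhibitors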
Records with an inconclusive call do not appear. Activity calls are given as the source filed them. How the source made its calls: active means hit-call score of the fitted dose curve at least 0.9, where 1 is the maximum; inconclusive means response in the unintended direction; inactive means score below 0.9.
Give your call using only these classes: yes (1) (active), no (0) (inactive)

| Substance Smiles | Label |
| --- | --- |
| CN(C)[C@@H]1C(=O)C(C(N)=O)=C(O)[C@@]2(O)C(=O)C3=C(O)c4c(O)cccc4[C@@](C)(O)[C@H]3C[C@@H]12 | no (0) |
| c1ccc2c(c1)-c1cccc3cccc-2c13 | no (0) |
| c1ccc(NNc2ccccc2)cc1 | yes (1) |
| Cc1cccc(N)c1N | no (0) |

Data request: Field: outcome | Entry: `C1=Cc2cccc3cccc1c23`
Data returned: yes (1)

---

Read-out: Early growth response protein 1 (EGR1) transcription factor, EGR1 (gene 1958)
Assay: LTEA_HepaRG_EGR1: Life Technologies and Expression Analysis (LTEA) Assay for Early growth response protein 1 (EGR1) transcription factor using HepaRG (AID 2283490)
Conditions: mRNA level, 48 h; actives raise or lower the signal
Calls of active or inactive are those of the source. Rule for the calls: active = hit-call score of the fitted dose curve at least 0.9, where 1 is the maximum; inactive = score below 0.9.
Give your call using only these classes: active, inactive

| Compound | Label |
| --- | --- |
| Nc1ccc(N=Nc2ccccc2)cc1 | active |
| Nc1ccc(Cl)cc1N | active |
| Clc1ccc(C(c2ccc(Cl)cc2)C(Cl)Cl)cc1 | inactive |
| ClCCOCCCl | inactive |
| c1ccc(N=Nc2ccccc2)cc1 | inactive |
| CCC(C)c1ccc(O)cc1 (stereo not drawn) | inactive |

Data request: Field: outcome | Entry: `O=[N+]([O-])C(Br)(CO)CO`
Data returned: inactive

Data request: Field: outcome | Entry: `CCCCCCCCn1sccc1=O`
Data returned: inactive

---

Read-out: Interferon-gamma inducible Protein 10 (IP10), CXCL10 (gene 3627)
Assay: BSK_BE3C_IP10: BioMAP Diversity Plus: BE3C Assay for Interferon-gamma inducible Protein 10 (IP10) Biomarker Activity (AID 2283034)
Conditions: primary human bronchial epithelial cells; actives raise or lower the signal
Active and inactive are the calls of the source. The calls were made as follows: active = hit-call score of the fitted dose curve at least 0.9, where 1 is the maximum; inactive = score below 0.9.
Give your call using only these classes: active, inactive

| Molecule | Label |
| --- | --- |
| CS(=O)(=O)NC(=O)c1cc(Oc2ccc(C(F)(F)F)cc2Cl)ccc1[N+](=O)[O-] | inactive |
| CCCSC(=O)N(CCC)CCC | inactive |
| Nc1ccc(N=Nc2ccccc2)cc1 | inactive |
| ClCCOCCCl | inactive |
| CN(C)C(=O)Nc1ccc(Cl)cc1 | inactive |
| CCCCCCCCCCCCCN1CC(C)OC(C)C1 (centres undefined) | inactive |
| C[N+](C)(C)CC1CO1 (centres undefined) | inactive |
| CN(C)c1ccccc1 | inactive |
| [As]#[In] | inactive |
| c1ccc2c(c1)-c1cccc3cccc-2c13 | inactive |

Data request: Field: outcome | Entry: `CC(C)N(Cc1ccccc1)C(=O)C(C)(C)C`
Data returned: inactive

Data request: Field: outcome | Entry: O=C(O)C1C2CCC(O2)C1C(=O)O (centres undefined)
Data returned: inactive

Data request: Field: outcome | Entry: `CCCCOC(=O)c1ccccc1C(=O)OCc1ccccc1`
Data returned: inactive

Data request: Field: outcome | Entry: `Clc1ccc(C(c2ccc(Cl)cc2)C(Cl)Cl)cc1`
Data returned: active

Data request: Field: outcome | Entry: `CN(C)c1ccc(C(=O)c2ccc(N(C)C)cc2)cc1`
Data returned: inactive

Data request: Field: outcome | Entry: `Nc1ccc(Cc2ccc(N)cc2)cc1`
Data returned: inactive

Data request: Field: outcome | Entry: `COP(=S)(OC)SCN1C(=O)c2ccccc2C1=O`
Data returned: inactive

Data request: Field: outcome | Entry: `[Cl-].[Cl-].[Hg+2]`
Data returned: active

Data request: Field: outcome | Entry: `COc1cc(C=O)cc2c1[C@H](COC(N)=O)[C@]1(OC(C)=O)ON2C[C@H]2[C@@H]1N2C(C)=O`
Data returned: active

---

System: frog Estrogen Receptor (ER), gene 398734
Assay: ATG_frER1_XSP2: Attagene TRANS-FACTORIAL Multi-Species (XSP2) HepG2 Assay for frog Estrogen Receptor (ER) (AID 2283821);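 further: hits raise reporter mRNA above DMSO baseline so potency means agonist or activator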
Results filed as inconclusive are left out. Calls of active or inactive are those of the source. Rule for the calls: active = hit-call score of the fitted dose curve at least 0.9, where 1 is the maximum; inconclusive = response in the unintended direction; inactive = score below 0.9.
Give your call using only these classes: 1.0 = active, 0.0 = inactive

Record excerpt, results attached:
| Compound | Label |
| --- | --- |
| O=[N+]([O-])c1ccc(Oc2ccc(Cl)cc2Cl)cc1 | 0.0 |
| CC(C)(C)C(O)(CCc1ccc(Cl)cc1)Cn1cncn1 (configuration not stated) | 0.0 |
| Clc1ccc(C(c2ccc(Cl)cc2)C(Cl)Cl)cc1 | 1.0 |
| CCCCOC(=O)c1ccccc1C(=O)OCc1ccccc1 | 1.0 |
| c1ccc2c(c1)-c1cccc3cccc-2c13 | 0.0 |

Data request: Field: outcome | Entry: `CCCCCOC(=O)c1ccccc1C(=O)OCCCCC`
Data returned: 0.0

Data request: Field: outcome | Entry: `C[C@]12C=CC3=C4CCC(=O)C=C4CC[C@H]3[C@@H]1CC[C@@H]2O`
Data returned: 0.0

---

Read-out: DNA damage-inducible transcript 3 (DDIT3), DDIT3 (gene 1649)
Test: LTEA_HepaRG_DDIT3: Life Technologies and Expression Analysis (LTEA) Assay for DNA damage-inducible transcript 3 (DDIT3) using HepaRG (AID 2283488)
Conditions: mRNA level, 48 h; actives raise or lower the signal
Active and inactive are the calls of the source. How the source made its calls: active means hit-call score of the fitted dose curve at least 0.9, where 1 is the maximum; inactive means score below 0.9.
Give your call using only these classes: class 1 for active, class 0 for inactive

Record excerpt, results attached:
| Molecule | Label |
| --- | --- |
| O=Cc1ccco1 | class 0 |
| O=P(OCCCl)(OCCCl)OCCCl | class 0 |

Data request: Field: outcome | Entry: CC(O)CCO (stereo not given)
Data returned: class 0

Data request: Field: outcome | Entry: `CS(=O)(=O)NC(=O)c1cc(Oc2ccc(C(F)(F)F)cc2Cl)ccc1[N+](=O)[O-]`
Data returned: class 0

Data request: Field: outcome | Entry: `c1ccc(NNc2ccccc2)cc1`
Data returned: class 0

Data request: Field: outcome | Entry: `COc1cc(C=O)cc2c1[C@H](COC(N)=O)[C@]1(OC(C)=O)ON2C[C@H]2[C@@H]1N2C(C)=O`
Data returned: class 1

---

Read-out: Human Leukocyte Antigen - DR isotype (HLADR), HLA-DRA (gene 3122)
Assay: BSK_3C_HLADR: BioMAP Diversity Plus: 3C Assay for Human Leukocyte Antigen - DR isotype (HLADR) Biomarker Activity (AID 2283019)
Settings: primary human endothelial cells (HUVEC); actives raise or lower the signal
Activity calls are given as the source filed them. How the source made its calls: active means hit-call score of the fitted dose curve at least 0.9, where 1 is the maximum; inactive means score below 0.9.
Give your call using only these classes: label 1 = active, label 0 = inactive

Record excerpt, results attached:
| Compound | Label |
| --- | --- |
| CC(O)CCO (stereo unspecified) | label 0 |
| O=P(OCCCl)(OCCCl)OCCCl | label 0 |
| Cc1ccc(N)c(N)c1 | label 1 |
| O=Cc1ccco1 | label 0 |
| CC(C)(OOC(C)(C)c1ccccc1)c1ccccc1 | label 1 |
| Clc1ccccc1Cl | label 0 |
| C1=Cc2cccc3cccc1c23 | label 0 |
| c1ccc2c(c1)oc1ccccc12 | label 0 |
| O=[N+]([O-])C(Br)(CO)CO | label 1 |
| O=C(O)C1C2CCC(O2)C1C(=O)O (stereo unspecified) | label 0 |

Data request: Field: outcome | Entry: `Cc1ccc(N=C=O)cc1N=C=O`
Data returned: label 0
